# target-system: cdc2/cyclinB
# protocol: cdc2/cyclinB kinase inhibition
test-readout: log10 of IC50 (log10 of the value in nM)
Log scale reminder: IC50 in nM, then log10 taken.

Fill blank: measured log10 of IC50 of the compound CC(C)[C@H](CO)Nc1nc(Nc2cc(N)cc(Cl)c2)c2ncn(C(C)C)c2n1 [NG-97] is ____. 1.48

Fill blank: measured log10 of IC50 of the compound CC(C)C(CO)Nc1nc(Nc2cc(Cl)cc(Cl)c2)c2ncn(C(C)C)c2n1 (stereo not shown) [NG-57] is ____. 2.60

Fill blank: measured log10 of IC50 of the compound CC(C)n1cnc2c(Nc3cccc(Br)c3)nc(NCCO)nc21 [NG-45] is ____. 2.43

Fill blank: measured log10 of IC50 of the compound CC(C)n1cnc2c(Nc3ccccc3Cl)nc(NCCO)nc21 [NG-43] is ____. 3.63

Fill blank: measured log10 of IC50 of the compound CC(C)n1cnc2c(Nc3cccc(C(F)(F)F)c3)nc(NCCO)nc21 [NG-51] is ____. 2.62

Fill blank: measured log10 of IC50 of the compound COc1ccc(CNc2nc(N(CCO)Cc3ccccc3)nc3c2ncn3C(C)C)cc1 [NG-49] is ____. 3.45

Fill blank: measured log10 of IC50 of the compound CC(C)n1cnc2c(Nc3cccc(Cl)c3)nc(N[C@H](CO)c3ccccc3)nc21 [NG-59] is ____. 2.90

Fill blank: measured log10 of IC50 of the compound CC(C)n1cnc2c(Nc3ccccc3C(F)(F)F)nc(NCCO)nc21 [NG-53] is ____. 4.00

More entries:
Fill blank: measured log10 of IC50 of the compound CC(C)n1cnc2c(Nc3ccc4ccccc4c3)nc(NCCO)nc21 [NG-47] is ____. 2.63

Fill blank: measured log10 of IC50 of the compound CC(C)n1cnc2c(Nc3cccc(Cl)c3)nc(NCCO)nc21 [NG-52] is ____. 2.34

Fill blank: measured log10 of IC50 of the compound COc1ccc(CNc2nc(N[C@@H](CO)CC(C)C)nc3c2ncn3C(C)C)cc1 [NG-36] is ____. 2.00

Fill blank: measured log10 of IC50 of the compound CC(C)n1cnc2c(Nc3cccc(F)c3)nc(NCCO)nc21 [NG-65] is ____. 2.60

Fill blank: measured log10 of IC50 of the compound COc1ccc(CNc2nc(N(CC(C)O)CC(C)O)nc3c2ncn3C(C)C)cc1 (stereo not shown) [NG-16] is ____. 2.38

Fill blank: measured log10 of IC50 of the compound CC(C)n1cnc2c(Nc3ccccc3)nc(NCCO)nc21 [NG-42] is ____. 3.63

Fill blank: measured log10 of IC50 of the compound CC(C)n1cnc2c(Nc3cccc(Cl)c3)nc(N[C@H](CO)C(C)(C)C)nc21 [NG-61] is ____. 3.36

Fill blank: measured log10 of IC50 of the compound COc1ccc(CNc2nc(NCC(O)c3ccccc3)nc3c2ncn3C(C)C)cc1 (stereo not shown) [NG-50] is ____. 3.45

Fill blank: measured log10 of IC50 of the compound CCC(C)[C@@H](CO)Nc1nc(Nc2cccc(Cl)c2)c2ncn(C(C)C)c2n1 (stereo partly shown) [NG-62] is ____. 2.70

Fill blank: measured log10 of IC50 of the compound CC(C)[C@H](CO)Nc1nc(Nc2ccc(Cl)c(N)c2)c2ncn(C(C)C)c2n1 [NG-98] is ____. 1.48

Fill blank: measured log10 of IC50 of the compound COc1ccccc1Nc1nc(NCCO)nc2c1ncn2C(C)C [NG-46] is ____. 3.95

Fill blank: measured log10 of IC50 of the compound CC(C)n1cnc2c(Nc3ccc(Cl)cc3Cl)nc(NCCO)nc21 [NG-54] is ____. 3.43
